# System: LXFL 529
# experiment summary: NCI tumour cell line growth inhibition, 48 h
Active and inactive are the calls of the source. Cut-off read from the data, not from the text of the source: active = GI50 up to about 1.1 µM and inactive = higher.
I'd appreciate it if you could supply GI50 values for the items below.

Find the recorded GI50 belonging to Nc1ccc(C(=O)N/C(=C\c2cccc([N+](=O)[O-])c2)c2nc3c4c(ccc3[nH]2)C(=O)c2ccccc2C4=O)cc1 and report it.
16.5 µM (inactive)

Look at this molecule and give its reported GI50. Cc1cc(NS(=O)(=O)c2ccc(NC(=O)c3cccc4c(N)c5ccccc5nc34)cc2)no1
32 µM (inactive)

What measured GI50 goes with Cc1cccc2c1NC(c1c(C)[nH]c3ccccc13)C2 (stereo not given) ?
> 100 µM (inactive)

Requested field: GI50. Item: O=C1N(c2ccccc2)C(=O)C2(SC=NN2Cc2ccccc2)N1c1ccccc1 (stereo not given)
> 100 µM (inactive)

# lookup: GI50 of COC1(OC)C2(Cl)C(Cl)=C(Cl)C1(Cl)C1C2C2CC1(C(=O)O)c1ccccc12 (stereo not given)
14.6 µM (inactive)

What value of measured GI50 is listed for C=C(C)C1CCC2(C)CC1c1c(c(C)cc3c1[nH]c1ccccc13)O2 (stereo not given) ?
> 25 µM (inactive)

Looking for the measured GI50 of CNC(=O)OCc1nc(SSC(C)(C)C)n(C)c1COC(=O)NC , can you help?
1.24 µM (inactive)

GET /values?readout=GI50&item= Cc1ccc(-c2nnc(-c3nn(-c4ccccc4)c4nc5ccccc5nc34)o2)cc1
10.6 µM (inactive)

Look up GI50: COc1ccc(/C=N/Nc2nc(-c3cc4oc(=O)n(C)c4cc3Cl)cs2)cc1OC
15.3 µM (inactive)

If you can, please state the reported GI50 value of O=C(Cc1ccccc1)NN1C(=O)C(Cl)C1c1cccc([N+](=O)[O-])c1 (stereo not given) .
14.2 µM (inactive)

* * *

# System: SF-539
# experiment summary: NCI tumour cell line growth inhibition, 48 h
Calls of active or inactive are those of the source. No stated cut-off is given here; in the data, active = GI50 up to about 1.1 µM and inactive = higher.
Can you answer with just one of these options? label 1 (active), label 0 (inactive)

For this compound, state the assay outcome: CCCNC(/C=C/[Si](C)(C)C)CO.CCCNCC(O)/C=C/[Si](C)(C)C (configuration not stated)
label 0

Look up the recorded call for CC(O)/C=C/C1OC(=O)CC1Nc1ccc(C=O)cc1 (configuration not stated) in this test.
label 0

Please share the test call associated with CC(=O)OCC1OC(SC2=NC(=O)CS2)C(OC(C)=O)C(OC(C)=O)C1OC(C)=O (configuration not stated) .
label 0

Please indicate how the test categorized O=C(N/N=C/C=C/c1ccc([N+](=O)[O-])o1)c1ccc(Br)s1 .
label 0

State the result this test recorded for [N-]=[N+]=NC1=C(N=[N+]=[N-])c2cccc3cccc(c23)C1=O .
label 0

Recorded test call requested for COc1cccc(-c2cc(O)c3c(C)ccnc3n2)c1
label 1

What is the recorded call for this compound in the test? COc1ccc(Nc2nn3c(=O)c4c(C)c(C)sc4nc3s2)cc1
label 0

* * *

# Test system: OVCAR-5
# experiment summary: NCI tumour cell line growth inhibition, 48 h
Calls of active or inactive are those of the source. Rule as the data show it: active = GI50 up to about 1.1 µM and inactive = higher. Peptide text beside a SMILES is read from it.
readout type: GI50

Recorded GI50 of Cc1cccc(C(C)(C)C)c1NC(=O)C(=O)Cc1nc2ccccc2s1 , please.
> 100 µM (inactive)

For the compound CCC1(COC(NC(=O)c2ccccc2)(C(F)(F)F)C(F)(F)F)COC1 , what GI50 is on record?
> 100 µM (inactive)

# input compound: CC(=O)NC(CS)C(=O)NC(CO)C(=O)NC(CO)C(=O)NC(Cc1c[nH]c2ccccc12)C(=O)N1CCCC1C(=O)NC(CO)C(=O)NC(Cc1c[nH]c2ccccc12)C(=O)NC(Cc1c[nH]cn1)C(=O)NC(CO)C(=O)NC(Cc1c[nH]c2ccccc12)C(=O)NCC(=O)NCC(=O)NC(C)C(=O)NC(CCC(N)=O)C(=O)NC(CCCCN)C(=O)NC(C)C(=O)NC(CCCNC(=N)N)C(=O)NC(CCCCN)C(N)=O (configuration not stated) (Ac-CSSWPSWHSWGGAQKARK-NH2; configuration not given here) ; wanted: its GI50
> 50 µM (inactive)

GI50 lookup needed for COc1ccc(/C=C\c2cc(OC)c(OC(C)=O)c(OC)c2)cc1 , thanks.
28.7 µM (inactive)

Look at this compound and give its reported GI50. CN(C)CC1CN(C(=O)Nc2ccccc2)C(=N)O1 (configuration not stated)
> 100 µM (inactive)

GI50 lookup needed for CC(=O)N1N=C(c2c(O)ccc3ccccc23)CC1C(=O)c1ccco1 (configuration not stated) , thanks.
55 µM (inactive)

Would you kindly share the measured GI50 for COC(=O)C1(CCCCl)CCCN1C(=O)OC(C)(C)C (configuration not stated) ?
> 100 µM (inactive)
